# System: Bordetella pertussis
# assay.details: Antibacterial activity against quinolone-susceptible Bordetella pertussis BP115 by Etest method
# Format: functional
Please use condition met for MIC under 0.02 µg/mL and condition not met for everything else, ties included.

Solved cases below.
compound	experimental.target	assigned.label
CCn1cc(C(=O)O)c(=O)c2ccc(C)nc21	Bordetella pertussis	condition not met
O=C(O)c1cn(C2CC2)c2cc(N3CCNCC3)c(F)cc2c1=O	Bordetella pertussis	condition met
CCn1cc(C(=O)O)c(=O)c2cc(F)c(N3CCNCC3)cc21	Bordetella pertussis	condition not met
COc1c(N2CCNC(C)C2)c(F)cc2c(=O)c(C(=O)O)cn(C3CC3)c12 (configuration not stated)	Bordetella pertussis	condition met

query: Check if MIC falls below 0.02 µg/mL for C[C@@H]1CN(c2c(F)c(N)c3c(=O)c(C(=O)O)cn(C4CC4)c3c2F)C[C@H](C)N1 .
result: condition met

query: Check if MIC falls below 0.02 µg/mL for O=C(N[C@H](CO)[C@H](O)c1ccc([N+](=O)[O-])cc1)C(Cl)Cl .
result: condition not met

query: Check if MIC falls below 0.02 µg/mL for C[C@H]1COc2c(N3CCN(C)CC3)c(F)cc3c(=O)c(C(=O)O)cn1c23.C[C@H]1COc2c(N3CCN(C)CC3)c(F)cc3c(=O)c(C(=O)O)cn1c23.O .
result: condition met

* * *

# Tested on: Bordetella pertussis
# assay.details: Antibacterial activity against […] Bordetella pertussis BP122 by Etest method
# Assay type: functional
Reported MIC is given for each of the following compounds.
Give the value in µg/mL but do not write µg/mL after it.

Field: example entries. Status: answers known.
compound	display.unit	MIC
O=C(N[C@H](CO)[C@H](O)c1ccc([N+](=O)[O-])cc1)C(Cl)Cl [CHLORAMPHENICOL]	µg/mL	0.25
COc1c(N2CCNC(C)C2)c(F)cc2c(=O)c(C(=O)O)cn(C3CC3)c12 (configuration not stated) [GATIFLOXACIN]	µg/mL	0.032

query: Need MIC of CCn1cc(C(=O)O)c(=O)c2cc(F)c(N3CCNCC3)cc21 [NORFLOXACIN] , thanks.
result: 1

query: Need MIC of C[C@@H]1CN(c2c(F)c(N)c3c(=O)c(C(=O)O)cn(C4CC4)c3c2F)C[C@H](C)N1 [SPARFLOXACIN] , thanks.
result: 0.064

query: Need MIC of O=C(O)c1cn(C2CC2)c2cc(N3CCNCC3)c(F)cc2c1=O [CIPROFLOXACIN] , thanks.
result: 0.125

query: Need MIC of C[C@H]1COc2c(N3CCN(C)CC3)c(F)cc3c(=O)c(C(=O)O)cn1c23.C[C@H]1COc2c(N3CCN(C)CC3)c(F)cc3c(=O)c(C(=O)O)cn1c23.O [LEVOFLOXACIN] , thanks.
result: 0.064

* * *

Reported MIC is given for each of the following molecules.
# Tested on: Bordetella pertussis
# assay.details: Antibacterial activity against quinolone-susceptible Bordetella pertussis BP113 by Etest method
# Type: functional
Give the value in ng/mL but do not write ng/mL after it.

Field: example entries. Status: answers known.
molecule	experimental.target	measure.name	reported
O=C(N[C@H](CO)[C@H](O)c1ccc([N+](=O)[O-])cc1)C(Cl)Cl	Bordetella pertussis	MIC	500
COc1c(N2CCNC(C)C2)c(F)cc2c(=O)c(C(=O)O)cn(C3CC3)c12 (configuration not stated)	Bordetella pertussis	MIC	4
C[C@@H]1CN(c2c(F)c(N)c3c(=O)c(C(=O)O)cn(C4CC4)c3c2F)C[C@H](C)N1	Bordetella pertussis	MIC	4
C[C@H]1COc2c(N3CCN(C)CC3)c(F)cc3c(=O)c(C(=O)O)cn1c23.C[C@H]1COc2c(N3CCN(C)CC3)c(F)cc3c(=O)c(C(=O)O)cn1c23.O	Bordetella pertussis	MIC	8
CCn1cc(C(=O)O)c(=O)c2ccc(C)nc21	Bordetella pertussis	MIC	2000

query: Need MIC of O=C(O)c1cn(C2CC2)c2cc(N3CCNCC3)c(F)cc2c1=O , thanks.
result: 8

query: Need MIC of CCn1cc(C(=O)O)c(=O)c2cc(F)c(N3CCNCC3)cc21 , thanks.
result: 64

Data origin, for the record: ChEMBL document CHEMBL1649508
